Every entry's value here was drawn from the Human Domainome abundance scans (Beltran et al. 2025).

B1: Gamma-crystallin D, residues 90 to 170; numbered along this chain, P07320 (parent)
chain: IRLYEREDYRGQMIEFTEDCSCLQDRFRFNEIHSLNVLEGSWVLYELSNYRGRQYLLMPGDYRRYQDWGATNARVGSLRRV

Variants of: B1
assayProcedure: abundance fitness (aPCA) (normalised: wild type 0, dead -1); higher = more abundant; growth selection in yeast, the domain comes from the species named
testSettings: Homo sapiens
measurementName: abundance fitness

stdin: Specify reported abundance fitness for the variant shown: `N49M`
stdout: 0.008

stdin: Specify reported abundance fitness for the variant shown: `C20P`
stdout: -0.486

stdin: Specify reported abundance fitness for the variant shown: `V37T`
stdout: 0.091

stdin: Specify reported abundance fitness for the variant shown: `Y45C`
stdout: -0.273

stdin: Specify reported abundance fitness for the variant shown: `L44W`
stdout: -0.414

stdin: Specify reported abundance fitness for the variant shown: `Y55P`
stdout: -1.07

stdin: Specify reported abundance fitness for the variant shown: `L35A`
stdout: 0.024

stdin: Specify reported abundance fitness for the variant shown: `E7A`
stdout: 0.001

stdin: Specify reported abundance fitness for the variant shown: `L57A`
stdout: -0.071

stdin: Specify reported abundance fitness for the variant shown: `L47D`
stdout: 0.147

stdin: Specify reported abundance fitness for the variant shown: `W42A`
stdout: -0.554

stdin: Specify reported abundance fitness for the variant shown: `L56T`
stdout: 0.129

stdin: Specify reported abundance fitness for the variant shown: `Y9R`
stdout: 0.204

stdin: Specify reported abundance fitness for the variant shown: `Y45A`
stdout: -0.347

stdin: Specify reported abundance fitness for the variant shown: `I32K`
stdout: -0.235

stdin: Specify reported abundance fitness for the variant shown: `F29Y`
stdout: 0.161

stdin: Specify reported abundance fitness for the variant shown: `L23P`
stdout: -0.029

stdin: Specify reported abundance fitness for the variant shown: `I32F`
stdout: -0.001

stdin: Specify reported abundance fitness for the variant shown: `Y9P`
stdout: -0.529

stdin: Specify reported abundance fitness for the variant shown: `S21F`
stdout: 0.017

stdin: Specify reported abundance fitness for the variant shown: `L44R`
stdout: -1.17

stdin: Specify reported abundance fitness for the variant shown: `S41R`
stdout: 0.021

stdin: Specify reported abundance fitness for the variant shown: `S21E`
stdout: 0.069

stdin: Specify reported abundance fitness for the variant shown: `I32D`
stdout: -0.346

stdin: Specify reported abundance fitness for the variant shown: `E39D`
stdout: -0.039

stdin: Specify reported abundance fitness for the variant shown: `M58S`
stdout: 0.055

stdin: Specify reported abundance fitness for the variant shown: `R6A`
stdout: 0.044

stdin: Specify reported abundance fitness for the variant shown: `C22W`
stdout: -0.107

stdin: Specify reported abundance fitness for the variant shown: `I32A`
stdout: -0.11

stdin: Specify reported abundance fitness for the variant shown: `E7M`
stdout: -0.029

stdin: Specify reported abundance fitness for the variant shown: `R10M`
stdout: -0.026

stdin: Specify reported abundance fitness for the variant shown: `R10T`
stdout: -0.034

stdin: Specify reported abundance fitness for the variant shown: `Q24S`
stdout: -0.008

stdin: Specify reported abundance fitness for the variant shown: `L47N`
stdout: -0.014

stdin: Specify reported abundance fitness for the variant shown: `I32Y`
stdout: 0.325

stdin: Specify reported abundance fitness for the variant shown: `D25S`
stdout: -0.127

stdin: Specify reported abundance fitness for the variant shown: `Q54D`
stdout: 0.007

stdin: Specify reported abundance fitness for the variant shown: `S34P`
stdout: -1.03

stdin: Specify reported abundance fitness for the variant shown: `V43L`
stdout: -0.1

stdin: Specify reported abundance fitness for the variant shown: `F16Y`
stdout: -0.606

stdin: Specify reported abundance fitness for the variant shown: `C22Q`
stdout: -0.023

stdin: Specify reported abundance fitness for the variant shown: `M58A`
stdout: 0.032

stdin: Specify reported abundance fitness for the variant shown: `E5G`
stdout: -0.025

stdin: Specify reported abundance fitness for the variant shown: `D19E`
stdout: 0.035

stdin: Specify reported abundance fitness for the variant shown: `L23F`
stdout: -0.027

stdin: Specify reported abundance fitness for the variant shown: `G40H`
stdout: 0.132

stdin: Specify reported abundance fitness for the variant shown: `Q12A`
stdout: -0.055

stdin: Specify reported abundance fitness for the variant shown: `E31Q`
stdout: 0.116

stdin: Specify reported abundance fitness for the variant shown: `Y50W`
stdout: -0.283

stdin: Specify reported abundance fitness for the variant shown: `S41T`
stdout: -0.09

stdin: Specify reported abundance fitness for the variant shown: `R51E`
stdout: 0.158

stdin: Specify reported abundance fitness for the variant shown: `Y9H`
stdout: 0.19

stdin: Specify reported abundance fitness for the variant shown: `H33K`
stdout: -0.057

stdin: Specify reported abundance fitness for the variant shown: `V37C`
stdout: -0.126

stdin: Specify reported abundance fitness for the variant shown: `M58L`
stdout: 0.015

stdin: Specify reported abundance fitness for the variant shown: `H33I`
stdout: 0.07

stdin: Specify reported abundance fitness for the variant shown: `D19M`
stdout: -0.06

stdin: Specify reported abundance fitness for the variant shown: `D8F`
stdout: 0.085

stdin: Specify reported abundance fitness for the variant shown: `R6Y`
stdout: -0.092

stdin: Specify reported abundance fitness for the variant shown: `R51N`
stdout: 0.139

stdin: Specify reported abundance fitness for the variant shown: `W42Q`
stdout: -0.969

stdin: Specify reported abundance fitness for the variant shown: `L23A`
stdout: 0.086

stdin: Specify reported abundance fitness for the variant shown: `Y50D`
stdout: -0.693

stdin: Specify reported abundance fitness for the variant shown: `S21N`
stdout: -0.183

stdin: Specify reported abundance fitness for the variant shown: `N49K`
stdout: -0.086

stdin: Specify reported abundance fitness for the variant shown: `S21A`
stdout: -0.023

stdin: Specify reported abundance fitness for the variant shown: `Y55M`
stdout: -0.039

stdin: Specify reported abundance fitness for the variant shown: `F16E`
stdout: -0.018

stdin: Specify reported abundance fitness for the variant shown: `M58D`
stdout: 0.021

stdin: Specify reported abundance fitness for the variant shown: `E7Y`
stdout: -0.498

stdin: Specify reported abundance fitness for the variant shown: `E7K`
stdout: 0.103

stdin: Specify reported abundance fitness for the variant shown: `S41D`
stdout: -0.007

stdin: Specify reported abundance fitness for the variant shown: `S34D`
stdout: -0.936

stdin: Specify reported abundance fitness for the variant shown: `I14Y`
stdout: -0.018

stdin: Specify reported abundance fitness for the variant shown: `Y55I`
stdout: 0.298

stdin: Specify reported abundance fitness for the variant shown: `E7S`
stdout: 0.069

stdin: Specify reported abundance fitness for the variant shown: `F27A`
stdout: -0.056

stdin: Specify reported abundance fitness for the variant shown: `R28E`
stdout: -0.177

stdin: Specify reported abundance fitness for the variant shown: `N36H`
stdout: -0.058

stdin: Specify reported abundance fitness for the variant shown: `M13A`
stdout: 0.08

stdin: Specify reported abundance fitness for the variant shown: `P59D`
stdout: 0.14

stdin: Specify reported abundance fitness for the variant shown: `Y45N`
stdout: -0.507

stdin: Specify reported abundance fitness for the variant shown: `E5W`
stdout: 0.154

stdin: Specify reported abundance fitness for the variant shown: `D8R`
stdout: 0.025

stdin: Specify reported abundance fitness for the variant shown: `Y45L`
stdout: -0.708
